Heads up, these compounds all have IC50 values measured for Cytochrome P450 2D6 (Homo sapiens).

| CHEMICAL_SMILES | STUDY_TARGET | IC50 [µM] |
| --- | --- | --- |
| C1=N/C2=N/c3ccc(OCCN4CCCC4)c(c3)COC/C=C/COCc3cccc(c3)C(=C1)N2 | Cytochrome P450 2D6 (Homo sapiens) | 5 |
| COc1ccc2cc1COC/C=C/COCc1cc(ccc1OCCN1CCCC1)Nc1nccc-2n1 | Cytochrome P450 2D6 (Homo sapiens) | 10 |

====

- STUDY_TARGET: UniProt:P08684
- Sequence (P08684 whole entry): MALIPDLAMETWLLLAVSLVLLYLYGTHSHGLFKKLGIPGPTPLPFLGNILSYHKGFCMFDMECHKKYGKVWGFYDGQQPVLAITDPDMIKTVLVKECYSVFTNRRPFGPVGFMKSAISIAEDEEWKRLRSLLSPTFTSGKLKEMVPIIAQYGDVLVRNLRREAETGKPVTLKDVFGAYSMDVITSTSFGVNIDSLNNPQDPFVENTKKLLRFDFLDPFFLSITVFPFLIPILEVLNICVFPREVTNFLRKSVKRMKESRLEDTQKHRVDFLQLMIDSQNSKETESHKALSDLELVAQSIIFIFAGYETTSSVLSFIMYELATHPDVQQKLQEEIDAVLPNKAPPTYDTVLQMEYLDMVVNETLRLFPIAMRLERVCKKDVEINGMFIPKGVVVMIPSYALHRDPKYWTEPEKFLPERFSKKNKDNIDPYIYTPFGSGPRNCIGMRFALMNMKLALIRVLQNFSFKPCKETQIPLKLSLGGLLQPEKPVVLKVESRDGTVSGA
pIC50: −log10 of the molar value.
OBSERVABLE: pIC50

| CHEMICAL_SMILES | STUDY_TARGET | RESULT_VALUE |
| --- | --- | --- |
| CN1C/C=C/CCOc2cccc(c2)-c2ccnc(n2)Nc2cccc(c2)C1 | UniProt:P08684 | < 4.60 |
| C1=N/C2=N/c3ccc(OCCN4CCCC4)c(c3)COC/C=C/COCc3cccc(c3)C(=C1)N2 | UniProt:P08684 | < 5.30 |

====

- METHOD: physchem
- DETAILS: octanol/water
- Description: Lipophilicity, logD of the compound
Catalogue of logD readings, one per entry.
OBSERVABLE: logD

| CHEMICAL_SMILES | RESULT_VALUE |
| --- | --- |
| CNC(=O)c1ccc(F)cc1[C@@H](C)Oc1cc(-c2cn(C)nc2C)cnc1N | 3.7 |
| C[C@@H]1Oc2cc(cnc2N)-c2c(C#N)nn(C)c2CCCOc2ccc(F)cc21 | 3.8 |

====

Heads up, these compounds all have IC50 values measured for Tyrosine-protein kinase JAK2 (Homo sapiens, UniProt O60674).

| CHEMICAL_SMILES | DISPLAY_UNIT | IC50 |
| --- | --- | --- |
| Cc1cnc2nc1-c1cccc(c1)COC/C=C/COCc1cc(ccc1OCCN1CCCC1)N2 | µM | 0.007 |
| OCCN1CCN(c2ccc3cc2COC/C=C/COCc2cccc(c2)-c2ccnc(n2)N3)CC1 | µM | 0.084 |

====

- STUDY_TARGET: Receptor-type tyrosine-protein kinase FLT3 (Homo sapiens)
- Sequence (P36888 whole entry): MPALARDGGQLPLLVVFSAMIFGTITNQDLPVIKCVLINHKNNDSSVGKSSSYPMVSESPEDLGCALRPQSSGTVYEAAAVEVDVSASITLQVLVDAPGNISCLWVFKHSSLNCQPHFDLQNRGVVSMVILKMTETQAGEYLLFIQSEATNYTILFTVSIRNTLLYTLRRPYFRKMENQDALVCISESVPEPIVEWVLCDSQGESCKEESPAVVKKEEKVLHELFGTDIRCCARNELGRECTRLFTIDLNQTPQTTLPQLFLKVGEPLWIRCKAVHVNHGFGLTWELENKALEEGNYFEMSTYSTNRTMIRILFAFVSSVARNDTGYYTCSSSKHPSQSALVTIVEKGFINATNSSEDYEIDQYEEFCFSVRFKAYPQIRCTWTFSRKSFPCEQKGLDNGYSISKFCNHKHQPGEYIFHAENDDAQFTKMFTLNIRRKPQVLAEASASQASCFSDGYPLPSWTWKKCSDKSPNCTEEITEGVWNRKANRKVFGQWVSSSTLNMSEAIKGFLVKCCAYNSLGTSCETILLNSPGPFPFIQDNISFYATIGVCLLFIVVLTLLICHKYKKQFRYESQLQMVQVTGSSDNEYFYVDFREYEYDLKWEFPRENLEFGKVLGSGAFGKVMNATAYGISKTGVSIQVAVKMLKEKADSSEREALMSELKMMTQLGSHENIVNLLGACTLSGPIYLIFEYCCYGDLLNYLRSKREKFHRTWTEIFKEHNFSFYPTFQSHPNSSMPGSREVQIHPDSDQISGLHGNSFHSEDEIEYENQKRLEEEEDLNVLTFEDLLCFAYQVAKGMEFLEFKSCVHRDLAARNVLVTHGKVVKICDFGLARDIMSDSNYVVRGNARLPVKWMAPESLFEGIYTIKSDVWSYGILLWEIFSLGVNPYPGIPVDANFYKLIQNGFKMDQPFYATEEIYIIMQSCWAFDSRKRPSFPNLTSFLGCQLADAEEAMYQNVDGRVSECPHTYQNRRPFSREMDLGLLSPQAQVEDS
OBSERVABLE: IC50 (nM)

| CHEMICAL_SMILES | RESULT_VALUE |
| --- | --- |
| OCCN1CCN(c2ccc3cc2COC/C=C/COCc2cccc(c2)-c2ccnc(n2)N3)CC1 | 70 |
